Tested on: Staphylococcus sp.
Assay: In vitro antibacterial evaluation: minimum inhibitory concentration (MIC), broth dilution method
Format: cell-based
Conditions: strain GC 4544

| compound | unitDescriptor | qualifierSymbol | MIC Staphylococcus aureus (GC 4544) |
| --- | --- | --- | --- |
| CC(c1ccccc1)C1NC(=O)CNC(=O)C(CO)NC(=O)C(C(O)C2CNC(=N)N2C2OC(CO)C(O)C(O)C2O)NC(=O)C(C(O)C2CNC(=N)N2)NC(=O)C(Cc2ccc(OC3OC(CO)C(OC4OC5COC(c6ccsc6)OC5C(O)C4O)C(O)C3O)cc2)NC1=O (stereo not shown) [Example 133] | µg/mL | = | 2 |
| N=C1NCC(C(O)C2NC(=O)C(CC3CCC(OC4OC(CO)C(OC5OC6COC7(OC6C(O)C5O)C5CC6CC(C5)CC7C6)C(O)C4O)CC3)NC(=O)C(CC3CCCCC3)NC(=O)CNC(=O)C(CO)NC(=O)C(C(O)C3CNC(=N)N3C3OC(CO)C(O)C(O)C3O)NC2=O)N1 (stereo not shown) [Example 222] | µg/mL | > | 64 |
| CC(C)=CCCC(C)C1OCC2OC(OC3C(CO)OC(Oc4ccc(CC5NC(=O)C(C(C)c6ccccc6)NC(=O)CNC(=O)C(CO)NC(=O)C(C(O)C6CNC(=N)N6C6OC(CO)C(O)C(O)C6O)NC(=O)C(C(O)C6CNC(=N)N6)NC5=O)cc4)C(O)C3O)C(O)C(O)C2O1 (stereo not shown) [Example 125] | µg/mL | = | 32 |
| CC(C1CCCCC1)C1NC(=O)CNC(=O)C(CO)NC(=O)C(C(O)C2CNC(=N)N2C2OC(CO)C(O)C(O)C2O)NC(=O)C(C(O)C2CNC(=N)N2)NC(=O)C(Cc2ccc(OC3OC(CO)C(OC4OC5COC(c6ccccc6)OC5C(O)C4O)C(O)C3O)cc2)NC1=O (stereo not shown) [Example 201] | µg/mL | = | 0.25 |
| CC(c1ccccc1)C1NC(=O)CNC(=O)C(CO)NC(=O)C(C(O)C2CNC(=N)N2C2OC(CO)C(O)C(O)C2O)NC(=O)C(C(O)C2CNC(=N)N2)NC(=O)C(Cc2ccc(OC3OC(CO)C(OC4OC(CO)C(O)C5OC(c6ccccc6)OC45)C(O)C3O)cc2)NC1=O (single isomer, unassigned) [Example 104b] | µg/mL | = | 0.5 |
| Cc1cccc(C2OCC3OC(OC4C(CO)OC(Oc5ccc(CC6NC(=O)C(C(C)c7ccccc7)NC(=O)CNC(=O)C(CO)NC(=O)C(C(O)C7CNC(=N)N7C7OC(CO)C(O)C(O)C7O)NC(=O)C(C(O)C7CNC(=N)N7)NC6=O)cc5)C(O)C4O)C(O)C(O)C3O2)c1 (stereo not shown) [Example 135] | µg/mL | = | 2 |
| CC(c1ccccc1)C1NC(=O)CNC(=O)C(CO)NC(=O)C(C(O)C2CNC(=N)N2C2OC(CO)C(O)C(O)C2O)NC(=O)C(C(O)C2CNC(=N)N2)NC(=O)C(Cc2ccc(OC3OC(CO)C(OC4OC5COC(c6ccccc6)OC5C(O)C4O)C(O)C3O)c(I)c2)NC1=O (stereo not shown) [Example 196] | µg/mL | > | 64 |

* * *

Test system: Enterococcus sp.
Experiment: In vitro antibacterial evaluation: minimum inhibitory concentration (MIC), broth dilution method
Format: cell-based
Details: Enterococcus faecalis (GC 2691); broth dilution, 18 hours at 35° C.
Description: […]
Numbered stars: 1 amine (or outer) side, 2 acyl side, 3 side chain; on linkers, the order of the positions; unused ones are H or OH. Square brackets hold non-standard residues; d marks the D form. Peptide text beside a SMILES is read from it. ξ: configuration not given here. X1 = N=C1NCC(C(O)C(N[*:1])C(=O)[*:2])N1C1OC(CO)C(O)C(O)C1O; ξEnduracididine(βξ-OH,4'ξ) = N=C1NCC(C(O)C(N)C(=O)O)N1; ξCha(3ξ-Me) = CC(C1CCCCC1)C(N)C(=O)O; Cha = N[CH](CC1CCCCC1)C(=O)O
Listing: MIC Enterococcus faecalis (GC 2691) of selected compounds
valueKind: MIC Enterococcus faecalis (GC 2691) (µg/mL)

| compound | valueKind | numericResult |
| --- | --- | --- |
| CC(C1CCCCC1)C1NC(=O)CNC(=O)C(CO)NC(=O)C(C(O)C2CNC(=N)N2C2OC(CO)C(O)C(O)C2O)NC(=O)C(C(O)C2CNC(=N)N2)NC(=O)C(CC2CCCCC2)NC1=O (stereo not drawn) [Example 53] (cyclo(G[ξCha(3ξ-Me)][Cha][ξEnduracididine(βξ-OH,4'ξ)][X1]S); configuration not given here) | MIC Enterococcus faecalis (GC 2691) | 8 |
| CC(c1ccccc1)C1NC(=O)CNC(=O)C(CO)NC(=O)C(C(O)C2CN(Cc3ccc(-c4ccccc4)cc3)C(=N)N2C2OC(CO)C(O)C(O)C2O)NC(=O)C(C(O)C2CNC(=NCc3ccc(-c4ccccc4)cc3)N2Cc2ccc(-c3ccccc3)cc2)NC(=O)C(Cc2ccc(OC3OC(CO)C(OC4OC(CO)C(O)C(O)C4O)C(O)C3O)cc2)NC1=O (stereo not drawn) | MIC Enterococcus faecalis (GC 2691) | 32 |
| CC(c1ccccc1)C1NC(=O)CNC(=O)C(CO)NC(=O)C(C(O)C2CNC(=N)N2C2OC(CO)C(O)C(O)C2O)NC(=O)C(C(O)C2CNC(=N)N2)NC(=O)C(Cc2ccc3oc(-c4ccc(Br)cc4)nc3c2)NC1=O (stereo not drawn) | MIC Enterococcus faecalis (GC 2691) | 32 |

* * *

Tested on: Staphylococcus sp.
Experiment: In vitro antibacterial evaluation: minimum inhibitory concentration (MIC), broth dilution method
Type: cell-based
Conditions: strain GC 4543; broth dilution, 18 hours at 35° C.
valueKind: MIC Staphylococcus aureus-SMITH (GC 4543) (µg/mL)

| molecule | measurementTarget | numericResult |
| --- | --- | --- |
| CCCC(C)C1OCC2OC(OC3C(CO)OC(Oc4ccc(CC5NC(=O)C(C(C)c6ccccc6)NC(=O)CNC(=O)C(CO)NC(=O)C(C(O)C6CNC(=N)N6C6OC(CO)C(O)C(O)C6O)NC(=O)C(C(O)C6CNC(=N)N6)NC5=O)cc4)C(O)C3O)C(O)C(O)C2O1 (stereo not shown) | Staphylococcus sp. | 1 |
| Cc1ccc(CC2OCC3OC(OC4C(CO)OC(Oc5ccc(CC6NC(=O)C(C(C)c7ccccc7)NC(=O)CNC(=O)C(CO)NC(=O)C(C(O)C7CNC(=N)N7C7OC(CO)C(O)C(O)C7O)NC(=O)C(C(O)C7CNC(=N)N7)NC6=O)cc5)C(O)C4O)C(O)C(O)C3O2)cc1 (stereo not shown) | Staphylococcus sp. | 1 |
| CC(c1ccccc1)C1NC(=O)CNC(=O)C(CO)NC(=O)C(C(O)C2CNC(=N)N2C2OC(CO)C(O)C(O)C2O)NC(=O)C(C(O)C2CNC(=N)N2)NC(=O)C(Cc2ccc(OC3OC(CO)C(OC4OC5COC(c6cccs6)OC5C(O)C4O)C(O)C3O)cc2)NC1=O (stereo not shown) | Staphylococcus sp. | 2 |
| CC(c1ccccc1)C1NC(=O)CNC(=O)C(CO)NC(=O)C(C(O)C2CNC(=N)N2C2OC(CO)C(O)C(O)C2O)NC(=O)C(C(O)C2CNC(=N)N2)NC(=O)C(Cc2ccc(OC3OC(CO)C(OC4OC5COC(CCc6ccccc6)OC5C(O)C4O)C(O)C3O)cc2)NC1=O (stereo not shown) | Staphylococcus sp. | 2 |

* * *

System: Staphylococcus sp.
Assay: In vitro antibacterial evaluation: minimum inhibitory concentration (MIC), broth dilution method
Format: cell-based
Details: Staphylococcus aureus-SMITH (GC 4543); 18 hours at 35° C.
List of MIC Staphylococcus aureus-SMITH (GC 4543) values.
valueKind: MIC Staphylococcus aureus-SMITH (GC 4543) (µg/mL)

| compound | numericResult |
| --- | --- |
| CC(c1ccccc1)C1NC(=O)CNC(=O)C(CO)NC(=O)C(C(O)C2CNC(=N)N2C2OC(CO)C(O)C(O)C2O)NC(=O)C(C(O)C2CNC(=N)N2)NC(=O)C(Cc2ccc(OC3OC(CO)C(OC4OC(CO)C(OCC=Cc5ccc(N(C)C)cc5)C(O)C4O)C(O)C3O)cc2)NC1=O (centres unmarked) [Example 243a] | 32 |
| CC(C)CC(=O)OC1C(O)C(CO)OC(OC2C(CO)OC(Oc3ccc(CC4NC(=O)C(C(C)c5ccc(Cl)cc5)NC(=O)CNC(=O)C(CO)NC(=O)C(C(O)C5CNC(=N)N5C5OC(CO)C(O)C(O)C5O)NC(=O)C(C(O)C5CNC(=N)N5)NC4=O)cc3)C(O)C2O)C1O (centres unmarked) [Example 262b] | 1 |

* * *

System: Staphylococcus sp.
Assay: In vitro antibacterial evaluation: minimum inhibitory concentration (MIC), broth dilution method
Format: cell-based
Details: strain GC 4541

| molecule | MIC Staphylococcus aureus (GC 4541) / µg/mL |
| --- | --- |
| CC(c1ccccc1)C1NC(=O)CNC(=O)C(CO)NC(=O)C(C(O)C2CNC(=N)N2C2OC(CO)C(O)C(O)C2O)NC(=O)C(C(O)C2CNC(=N)N2)NC(=O)C(Cc2ccc(OC3OC(CO)C(OC4OC(CO)C(O)C5OC(CC67CC8CC(CC(C8)C6)C7)OC45)C(O)C3O)cc2)NC1=O (centres unmarked) | 2 |
| CC(C)CC(=O)OC1C(O)C(OC2C(CO)OC(Oc3ccc(CC4NC(=O)C(C(C)c5ccccc5)NC(=O)CNC(=O)C(CO)NC(=O)C(C(O)C5CNC(=N)N5C5OC(CO)C(O)C(O)C5O)NC(=O)C(C(O)C5CNC(=N)N5)NC4=O)cc3)C(O)C2O)OC2COC3(OC21)C1CC2CC(C1)CC3C2 (centres unmarked) | 4 |
| CC(c1ccccc1)C1NC(=O)CNC(=O)C(CO)NC(=O)C(C(O)C2CNC(=N)N2C2OC(CO)C(O)C(O)C2O)NC(=O)C(C(O)C2CNC(=N)N2)NC(=O)C(Cc2ccc(OC3OC(CO)C(OC4OC5COC(C6CC=CCC6)OC5C(O)C4O)C(O)C3O)cc2)NC1=O (centres unmarked) | 1 |
| CC(c1ccccc1)C1NC(=O)CNC(=O)C(CO)NC(=O)C(CC2CNC(=N)N2C2OC(CO)C(O)C(O)C2O)NC(=O)C(CC2CNC(=N)N2)NC(=O)C(Cc2ccc(OC3OC(CO)C(OC4OC5COC6(OC5C(O)C4O)C4CC5CC(C4)CC6C5)C(O)C3O)cc2)NC1=O (centres unmarked) | 2 |
| N=C1NCC(C(O)C2NC(=O)C(Cc3ccc(OC4OC(CO)C(OC5OC6COC7(OC6C(O)C5O)C5CC6CC(C5)CC7C6)C(O)C4O)cc3)NC(=O)C(Cc3ccccc3)NC(=O)CNC(=O)C(CO)NC(=O)C(C(O)C3CNC(=N)N3C3OC(CO)C(O)C(O)C3O)NC2=O)N1 (centres unmarked) | 1 |
| CC(c1ccccc1)C1NC(=O)CNC(=O)C(CO)NC(=O)C(C(O)C2CNC(=N)N2C2OC(CO)C(O)C(O)C2O)NC(=O)C(C(O)C2CNC(=N)N2)NC(=O)C(Cc2ccc(OC3OC(CO)C(OC4OC5COC(c6ccccc6)OC5C(O)C4O)C(O)C3O)cc2)NC1=O (centres unmarked) | 1 |
| CC(c1ccccc1)C1NC(=O)CNC(=O)C(CO)NC(=O)C(C(O)C2CNC(=N)N2C2OC(CO)C(O)C(O)C2O)NC(=O)C(C(O)C2CNC(=N)N2)NC(=O)C(Cc2ccc(OC3OC(CO)C(OC4OC5COC6(OC5C(O)C4O)C(C)CCCC6C)C(O)C3O)cc2)NC1=O (centres unmarked) | 1 |
| CC(c1ccccc1)C1NC(=O)CNC(=O)C(CO)NC(=O)C(C(O)C2CNC(=N)N2C2OC(CO)C(O)C(O)C2O)NC(=O)C(C(O)C2CNC(=N)N2)NC(=O)C(Cc2ccc(OC3OC(CO)C(OC4OC5COC(CC(C)(C)C)OC5C(O)C4O)C(O)C3O)cc2)NC1=O (centres unmarked) | 1 |
| CC(c1ccccc1)C1NC(=O)CNC(=O)C(CO)NC(=O)C(C(O)C2CNC(=N)N2C2OC(CO)C(O)C(O)C2O)NC(=O)C(C(O)C2CNC(=N)N2)NC(=O)C(Cc2ccc(OC3OC(CO)C(OC4OC5COC(c6ccsc6)OC5C(O)C4O)C(O)C3O)cc2)NC1=O (centres unmarked) | 1 |
| CC(c1ccccc1)C1NC(=O)CNC(=O)C(CO)NC(=O)C(C(O)C2CNC(=N)N2C2OC(CO)C(O)C(O)C2O)NC(=O)C(C(O)C2CNC(=N)N2)NC(=O)C(Cc2ccc(OC3OC(CO)C(OC4OC5COC6(CCCCCCCCCCCC6)OC5C(O)C4O)C(O)C3O)cc2)NC1=O (centres unmarked) | 32 |
| CC(c1ccccc1)C1NC(=O)CNC(=O)C(CO)NC(=O)C(C(O)C2CN(Cc3ccc(C(F)(F)F)cc3)C(=N)N2C2OC(CO)C(O)C(O)C2O)NC(=O)C(C(O)C2CNC(=N)N2)NC(=O)C(Cc2ccc(OC3OC(CO)C(OC4OC5COC6(OC5C(O)C4O)C4CC5CC(C4)CC6C5)C(O)C3O)cc2)NC1=O (centres unmarked) | 8 |
| CC(c1ccccc1)C1NC(=O)CNC(=O)C(CO)NC(=O)C(C(O)C2CNC(=N)N2C2OC(CO)C(O)C(O)C2O)NC(=O)C(C(O)C2CNC(=N)N2)NC(=O)C(Cc2ccc(OC3OC(CO)C(OC4OC5COC(c6ccc(C(=O)c7cc(I)c(I)c(I)c7)cc6)OC5C(O)C4O)C(O)C3O)cc2)NC1=O (centres unmarked) | 64 |
| CC(c1ccccc1)C1NC(=O)CNC(=O)C(CO)NC(=O)C(CC2CNC(=N)N2C2OC(CO)C(O)C(O)C2O)NC(=O)C(CC2CNC(=N)N2)NC(=O)C(Cc2ccc(OC3OC(CO)C(OC4OC5COC(c6ccc(OCc7ccccc7)cc6)OC5C(O)C4O)C(O)C3O)cc2)NC1=O (centres unmarked) | 4 |

Data provenance: patent US8247211B2
